TARGET OR SYSTEM: KRAS WT (Homo sapiens (Human), UniProt P01116+P62937)
Sequence (P01116 other isoform, or with tags, fused parts or gaps): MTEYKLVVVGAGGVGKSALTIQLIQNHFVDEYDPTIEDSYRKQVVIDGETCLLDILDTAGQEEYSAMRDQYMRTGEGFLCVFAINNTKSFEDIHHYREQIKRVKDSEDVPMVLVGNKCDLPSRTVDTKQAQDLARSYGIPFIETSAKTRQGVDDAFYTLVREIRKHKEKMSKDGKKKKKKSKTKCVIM
Sequence (P62937 whole entry): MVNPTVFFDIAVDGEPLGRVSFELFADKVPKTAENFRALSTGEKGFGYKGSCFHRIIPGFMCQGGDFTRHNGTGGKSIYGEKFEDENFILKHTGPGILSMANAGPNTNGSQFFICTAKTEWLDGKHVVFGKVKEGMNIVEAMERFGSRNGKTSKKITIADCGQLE
ASSAY DETAILS: Ras-Raf disruption/FRET/MOA assay (BRAF RBD, Cyclophilin A)
Type: biochemical
MEASUREMENT PARAMETERS: read-out: KRAS WT FRET data IC50
// reported IC50 per item

{"MOLECULE": "CCn1c(-c2cccnc2[C@H](C)OC)c2c3cc(ccc31)-c1csc(n1)C[C@H](NC(=O)[C@H](C(C)C)N(C)C(=O)C1COC1)C(=O)N1CCC[C@H](N1)C(=O)OCC(C)(C)C2 [Compound A245]", "IC50": "1000 to 10000 nM"}
{"MOLECULE": "CCn1c(-c2cccnc2[C@H](C)OC)c2c3cc(ccc31)-c1csc(n1)C[C@H](NC(=O)[C@H](C(C)C)N(C)C(=O)N1CC([C@H](CO)OC)C1)C(=O)N1CCC[C@H](N1)C(=O)OCC(C)(C)C2 [Compound A515]", "IC50": "100 to 1000 nM"}
{"MOLECULE": "CCn1c(-c2cccnc2[C@H](C)OC)c2c3cc(ccc31)-c1csc(n1)C[C@H](NC(=O)[C@H](C(C)C)N(C)C(=O)N1CC[C@@]13CCCNC3)C(=O)N1CCC[C@H](N1)C(=O)OCC(C)(C)C2 [Compound A435]", "IC50": "100 to 1000 nM"}
{"MOLECULE": "CCn1c(-c2cccnc2[C@H](C)OC)c2c3cc(ccc31)-c1csc(n1)C[C@H](NC(=O)[C@H](C(C)C)N(C)C(=O)N1CC(CN(C)C)C1)C(=O)N1CCC[C@H](N1)C(=O)OCC(C)(C)C2 [Compound A576]", "IC50": "100 to 1000 nM"}
{"MOLECULE": "CCn1c(-c2cccnc2[C@H](C)OC)c2c3cc(ccc31)-c1csc(n1)C[C@H](NC(=O)[C@H](C(C)C)N(C)C(=O)N1[C@H](C)COC[C@@H]1C)C(=O)N1CCC[C@H](N1)C(=O)OCC(C)(C)C2 [Compound A276]", "IC50": "100 to 1000 nM"}
{"MOLECULE": "CCn1c(-c2cnccc2COC)c2c3cc(ccc31)-c1cc(O)cc(c1)C[C@H](NC(=O)[C@H](C(C)C)N(C)C(=O)CN/C(N)=N/C#N)C(=O)N1CCC[C@H](N1)C(=O)OCC(C)(C)C2 [Compound A62]", "IC50": "100 to 1000 nM"}

Determine from records and report IC50 for CCn1c(-c2cccnc2[C@H](C)OC)c2c3cc(ccc31)-c1cc(cc(C(F)F)c1)C[C@H](NC(=O)[C@H](C(C)C)N(C)C(=O)[C@@H]1OCC[C@@H]1c1ccccc1)C(=O)N1CCC[C@H](N1)C(=O)OCC(C)(C)C2 [Compound A592]
1000 to 10000 nM

Determine from records and report IC50 for CCn1c(-c2cccnc2[C@H](C)OC)c2c3cc(ccc31)-c1cc(O)cc(c1)C[C@H](NC(=O)[C@H](C(C)C)N(C)C(=O)[C@H]1CCN(C(=O)[C@H]3CCCN3C)C1)C(=O)N1CCC[C@H](N1)C(=O)OCC(C)(C)C2 [Compound A371]
10 to 100 nM

====

// reported IC50 per item
TARGET OR SYSTEM: KRAS G13C (Homo sapiens (Human), UniProt P01116+P62937, G13C)
Sequence (P01116 other isoform, or with tags, fused parts or gaps G13C): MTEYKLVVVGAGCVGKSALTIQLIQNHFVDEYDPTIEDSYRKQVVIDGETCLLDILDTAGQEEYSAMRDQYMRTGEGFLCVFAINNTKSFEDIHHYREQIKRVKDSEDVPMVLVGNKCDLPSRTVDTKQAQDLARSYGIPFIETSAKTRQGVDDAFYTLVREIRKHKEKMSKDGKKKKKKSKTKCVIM
Sequence (P62937 whole entry): as the sequence (P62937 whole entry) above
ASSAY DETAILS: Ras-Raf disruption/FRET/MOA assay (BRAF RBD, Cyclophilin A)
Format: biochemical
MEASUREMENT PARAMETERS: read-out: KRAS G13C FRET IC50
Description: Compound is present in plate wells as a 10-point 3-fold dilution series starting at a final concentration of 30 μM. After incubation at 25° C. for 3 hours, a mixture of Anti-His Eu—W1024 and anti-GST allophycocyanin is then added to assay sample wells at final concentrations of 10 nM and 50 nM, respectively, and the reaction incubated for an additional 1.5 hours. […]

{"COMPOUND": "CCn1c(-c2cnccc2COC)c2c3cc(ccc31)-c1cc(O)cc(c1)C[C@H](NC(=O)[C@H](C(C)C)N(C)C(=O)N1CCOCC1)C(=O)N1CCC[C@H](N1)C(=O)OCC(C)(C)C2 [Compound A257]", "IC50": "0.1 to 1 µM"}

Determine from records and report IC50 for CCn1c(-c2cccnc2[C@H](C)OC)c2c3cc(ccc31)-c1csc(n1)C[C@H](NC(=O)[C@H](C(C)C)N(C)C(=O)N1CC[C@@]3(CCNC3=O)C1)C(=O)N1CCC[C@H](N1)C(=O)OCC(C)(C)C2 [Compound A480]
0.1 to 1 µM

Determine from records and report IC50 for CCn1c(-c2cnccc2COC)c2c3cc(ccc31)-c1cc(O)cc(c1)C[C@H](NC(=O)[C@H](C(C)C)N(C)C(=O)N1CCN(C)CC1)C(=O)N1CCC[C@H](N1)C(=O)OCC(C)(C)C2 [Compound A46]
0.1 to 1 µM

Determine from records and report IC50 for CCn1c(-c2cnccc2COC)c2c3cc(ccc31)-c1cc(O)cc(c1)C[C@H](NC(=O)[C@H](C(C)C)N(C)c1cnc(N)[nH]c1=O)C(=O)N1CCC[C@H](N1)C(=O)OCC(C)(C)C2 [Compound A63]
1 to 10 µM

Determine from records and report IC50 for CCn1c(-c2cccnc2[C@H](C)OC)c2c3cc(ccc31)-c1csc(n1)C[C@H](NC(=O)[C@H](C(C)C)N(C)C(=O)N1CCO[C@@]3(CCN(C)C3)C1)C(=O)N1CCC[C@H](N1)C(=O)OCC(C)(C)C2 [Compound A436]
0.1 to 1 µM

====

TARGET OR SYSTEM: KRAS WT (Homo sapiens (Human), UniProt P01116+P62937)
ASSAY DETAILS: Ras-Raf disruption/FRET/MOA assay, KRAS WT
Type: biochemical
// reported IC50 per item

Some solved entries appear below for comparison.
{"STRUCTURE STRING": "CCn1c(-c2cnccc2COC)c2c3cc(ccc31)-c1cc(O)cc(c1)C[C@H](NC(=O)[C@H](C(C)C)N(C)C(=O)CN(C)C(=O)[C@H]1N[C@@H]1c1ccc(OC)cc1)C(=O)N1CCC[C@H](N1)C(=O)OCC(C)(C)C2", "TARGET OR SYSTEM": "KRAS WT (Homo sapiens (Human), UniProt P01116+P62937)", "RECORDED RESULT": "10 to 100 nM"}
{"STRUCTURE STRING": "CCn1c(-c2cccnc2[C@H](C)OC)c2c3cc(ccc31)-c1cc(O)cc(c1)C[C@H](NC(=O)[C@H](C(C)C)N(C)C(=O)[C@]1(C)CCCN1C(=O)[C@H]1CN1)C(=O)N1CCC[C@H](N1)C(=O)OCC(C)(C)C2", "TARGET OR SYSTEM": "KRAS WT (Homo sapiens (Human), UniProt P01116+P62937)", "RECORDED RESULT": "100 to 1000 nM"}
{"STRUCTURE STRING": "CCn1c(-c2cccnc2[C@H](C)OC)c2c3cc(ccc31)-c1cc(O)cc(c1)C[C@H](NC(=O)[C@H](C(C)C)N(C)C(=O)[C@@H]1CO[C@H](C)CN1C(=O)[C@@H]1CN1)C(=O)N1CCC[C@H](N1)C(=O)OCC(C)(C)C2", "TARGET OR SYSTEM": "KRAS WT (Homo sapiens (Human), UniProt P01116+P62937)", "RECORDED RESULT": "10 to 100 nM"}

Determine from records and report IC50 for "CCn1c(-c2cnccc2COC)c2c3cc(ccc31)-c1cc(O)cc(c1)C[C@H](NC(=O)[C@H](C(C)C)N(C)C(=O)CN(C)C(=O)[C@@H]1N[C@@H]1C)C(=O)N1CCC[C@H](N1)C(=O)OCC(C)(C)C2"
10 to 100 nM

Determine from records and report IC50 for "CCn1c(-c2cnccc2COC)c2c3cc(ccc31)-c1cc(O)cc(c1)C[C@H](NC(=O)[C@H](C(C)C)N(C)C(=O)CN(C)C(=O)[C@H]1N[C@@H]1c1ccccc1)C(=O)N1CCC[C@H](N1)C(=O)OCC(C)(C)C2"
10 to 100 nM

Determine from records and report IC50 for "CCn1c(-c2cnccc2COC)c2c3cc(ccc31)-c1cc(O)cc(c1)C[C@H](NC(=O)[C@H](C(C)C)N(C)C(=O)CN(C)C(=O)[C@H]1N[C@H]1C1CC1)C(=O)N1CCC[C@H](N1)C(=O)OCC(C)(C)C2"
100 to 1000 nM

Determine from records and report IC50 for "CCn1c(-c2cnccc2COC)c2c3cc(ccc31)-c1cc(O)cc(c1)C[C@H](NC(=O)[C@H](C(C)C)N(C)C(=O)CN(C)C(=O)[C@@H]1N[C@@H]1C1CC1)C(=O)N1CCC[C@H](N1)C(=O)OCC(C)(C)C2"
10 to 100 nM

Determine from records and report IC50 for "CCn1c(-c2cnccc2COC)c2c3cc(ccc31)-c1cc(O)cc(c1)C[C@H](NC(=O)[C@H](C(C)C)N(C)C(=O)CN(C)C(=O)[C@H]1N[C@H]1c1ccc(OC)cc1)C(=O)N1CCC[C@H](N1)C(=O)OCC(C)(C)C2"
10 to 100 nM
